Source listed as paper PMC10179080.

Recorded TD50 at 30 min values for a group of molecules are listed next.
Test: Chimney test
Conditions: male, albino Swiss, mouse, in vivo, ip, mice
Write down the numeric answer in mg/kg and omit the unit.

CC(C(=O)N1CCN(c2cccc(C(F)(F)F)c2)CC1)N1C(=O)CC(N(C)C)C1=O.Cl (centres unmarked) ... 163

Now, please, on to the next molecule.
Requested read-out: TD50 at 30 min. Entry: CC(C(=O)N1CCN(c2cccc(C(F)(F)F)c2)CC1)N1CCCC1=O (centres unmarked)
131
